Biological target: 5-hydroxytryptamine receptor 1A (Rattus norvegicus) (UniProt P19327)
Sequence (P19327 whole entry): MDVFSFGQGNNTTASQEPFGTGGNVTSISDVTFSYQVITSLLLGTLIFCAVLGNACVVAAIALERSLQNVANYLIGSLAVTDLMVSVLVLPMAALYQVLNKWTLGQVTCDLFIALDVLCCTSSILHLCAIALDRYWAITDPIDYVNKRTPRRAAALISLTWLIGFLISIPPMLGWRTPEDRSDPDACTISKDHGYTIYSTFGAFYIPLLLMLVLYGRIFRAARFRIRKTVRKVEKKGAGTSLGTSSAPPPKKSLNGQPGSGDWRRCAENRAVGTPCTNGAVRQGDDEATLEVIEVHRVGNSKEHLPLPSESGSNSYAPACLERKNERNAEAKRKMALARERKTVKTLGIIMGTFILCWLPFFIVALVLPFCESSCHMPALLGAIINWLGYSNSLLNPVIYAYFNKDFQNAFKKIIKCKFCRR
Experiment: Ability to displace the protonated form of [3H]8-hydroxy-2-(di-n-propylamino)tetralin binding from labeled 5-hydroxytryptamine 1A receptor site in rat brain hippocampus
Type: tissue-based
Examples of compounds with documented KiAH follow.

| compound | unit-of-measure | KiAH |
| --- | --- | --- |
| CCCCN1CCN(c2cccc(Cl)c2)CC1 | nM | 3.06 |
| CCCCCCN1CCN(c2cccc(Cl)c2)CC1 | nM | 0.032 |
| C=CCN1CCN(c2cccc(Cl)c2)CC1 | nM | 81.2 |
| CC1(C)CC(=O)N(CCCCN2CCN(c3ncccn3)CC2)C(=O)C1 [GEPIRONE] | nM | 20.2 |
| CCCN1CCN(c2cccc(Cl)c2)CC1 | nM | 38.9 |
| CN1CCN(c2cccc(Cl)c2)CC1 | nM | 134 |
| CCC(C)N1CCN(c2cccc(Cl)c2)CC1 (stereo not drawn) | nM | 27.4 |
| Clc1cccc(N2CCN(Cc3ccccc3)CC2)c1 | nM | 0.166 |
| CCCCCN1CCN(c2cccc(Cl)c2)CC1 | nM | 0.282 |
| CCN1CCN(c2cccc(Cl)c2)CC1 | nM | 166 |
| Clc1cccc(N2CCNCC2)c1 | nM | 131 |
| CC(C)N1CCN(c2cccc(Cl)c2)CC1 | nM | 102 |
| OCCN1CCN(c2cccc(Cl)c2)CC1 | nM | 50.3 |
